These measurements were taken from PubChem BioAssay (NCI).

Give TGI for every item shown.
tested on: SW-620 colon; assay: NCI tumour cell line growth inhibition, 48 h

Need TGI for each of these compounds.
1. NC1CCC(Nc2nc(NCc3ccc(-c4ccccc4O)nc3)c3ncn(C4CCCC4)c3n2)CC1 (centres undefined)
2. COc1cc2cc3c4cc(OC)c(OC)cc4cc[n+]3cc2cc1OC
3. COc1ccc2c3c([nH]c2c1[N+](=O)[O-])C(C)N(Cc1ccc([N+](=O)[O-])cc1)CC3 (centres undefined)
4. O=C(O)NC(c1ccccc1)C(NC(=O)c1ccccc1)c1ccccc1 (centres undefined)
5. Cc1ccc(Cc2cnc(NC(=O)/C=C/c3cccc(C)c3)s2)cc1
6. C=C(NC(=O)C(=C)NC(=O)c1csc(C2=NC3c4csc(n4)C4NC(=O)c5csc(n5)C(C(C)(O)C(C)O)NC(=O)C5CSC(=N5)C(=CC)NC(=O)C(C(C)O)NC(=O)c5csc(n5)C3(CC2)NC(=O)C(C)NC(=O)C(=C)NC(=O)C(C)NC(=O)C(C(C)CC)NC2C=Cc3c(C(C)O)cc(nc3C2O)C(=O)OC4C)n1)C(N)=O (centres undefined)
7. CC[C@H](Nc1c(O)c2c(c(O)c1Cl)C(=O)C=CC2=O)C(=O)OC

*A*
1. 1.23 µM
2. > 100 µM
3. > 100 µM
4. > 100 µM
5. > 100 µM
6. > 100 µM
7. > 10 µM
